Test protocol: FRG1 promoter luciferase signal modulators, primary screen, FRG1 inhibition for FSHD, cell-based, C2C12 myotubes, firefly/Renilla luciferase, luminescence (AID 1084)
Assay conditions: called active from +8 up or from −8 down
The source made the active and inactive calls.
Possible outcomes: label 1 = active, label 0 = inactive

[
  {
    "Compound": "CC(=O)OC[C@H]1O[C@H](CCON=C(C)CCC(=O)OC[C@H]2O[C@H](C#Cc3ccccc3)C=C[C@@H]2Oc2ccc(C)cc2)C=C[C@@H]1OC(C)=O",
    "Category": "label 0"
  },
  {
    "Compound": "C=CCN1C(=O)[C@]2(O[C@H](CCn3cc(CCO)nn3)[C@@H]([Si](C)(C)c3ccc(OC)cc3)[C@@H]2C)c2cc(N3CCOC3=O)ccc21",
    "Category": "label 0"
  },
  {
    "Compound": "COc1ccc([Si](C)(C)[C@@H]2[C@@H](CC(=O)N3CCC[C@H]3CO)O[C@]3(C(=O)N(Cc4cccc(N5CCC5=O)c4)c4ccccc43)[C@H]2C)cc1",
    "Category": "label 0"
  },
  {
    "Compound": "C[C@H](c1ccccc1)N1C(=O)[C@H]2[C@@H]3C(=CC[C@H]2C1=O)C(=O)[C@H]1O[C@H]1[C@H]3O",
    "Category": "label 1"
  },
  {
    "Compound": "O=C(CS)NCCCCCNC(=O)[C@@H]1C[C@@H]2C(=O)N[C@@H](Cc3ccccc3)C(=O)N2[C@@H]1c1ccc(O)cc1",
    "Category": "label 0"
  },
  {
    "Compound": "CN1C(=O)C2C=CC(C(O)c3ccc(I)cc3)N(NC(=O)OC(C)(C)C)C2C1=O (stereo not given)",
    "Category": "label 0"
  },
  {
    "Compound": "COC(=O)[C@H](C)NC(=O)CCC1CC(OC(=O)NCc2cccc3ccccc23)CC2(CCCC(COC(=O)NCC3CCCCC3)O2)O1 (stereo not given in full)",
    "Category": "label 0"
  },
  {
    "Compound": "C=C(/C(=C/C[C@H](OC(=O)c1ccncc1)c1ccc(OCCO)cc1)c1cnc2ccccc2c1)C(C)C",
    "Category": "label 0"
  },
  {
    "Compound": "COC(=O)[C@@H]1N=C(c2ccc(OCCCO)cc2)O[C@@H]1c1ccccc1N=[N+]=[N-]",
    "Category": "label 0"
  },
  {
    "Compound": "COC(=O)C1=CCC(c2cccc(Cl)c2)O1 (stereo not given)",
    "Category": "label 0"
  },
  {
    "Compound": "CC(=O)O[C@H]1C2=C(C(=O)[C@@H]3O[C@@H]31)[C@H]1C(C)O[C@@H]2[C@@]23C(=O)[C@@H]4O[C@@H]4[C@@H](O)C2=CO[C@H](C)[C@@H]13 (stereo not given in full)",
    "Category": "label 0"
  },
  {
    "Compound": "CN1C(=O)C2C=CC(C(O)C(c3ccccc3)c3ccccc3)N(NC(=O)OC(C)(C)C)C2C1=O (stereo not given)",
    "Category": "label 0"
  },
  {
    "Compound": "C=CCOC(=O)[C@H]1[C@@H]2C(=O)O[C@@H](c3ccccc3)[C@@H](c3ccccc3)N2[C@@H](c2ccc(OCCOC(=O)[C@H]3C[C@H]4C(=O)N5CCC[C@H]5C(=O)N4[C@H]3c3cccc(OCCO)c3)cc2)[C@]12C(=O)Nc1ccc(I)cc12",
    "Category": "label 0"
  },
  {
    "Compound": "c1ccc(C2NCCc3c2[nH]c2ccccc32)cc1 (stereo not given)",
    "Category": "label 0"
  },
  {
    "Compound": "C/C=C\\[C@@H](NCc1ccccc1Br)[C@@H](O)Cc1ccccc1",
    "Category": "label 0"
  }
]
